Values were extracted from ChEMBL document CHEMBL5154654.

Assay: Aqueous solubility of compound
Format: physicochemical
Settings: aqueous (not further specified)
reported_endpoint: solubility (µg/mL)

Illustrative cases are given below, each with its answer.
1. Cc1cc(Nc2nc(Oc3cccc4c3C(=O)CC4)c3cc[nH]c3n2)ccc1OCCN(C)C: 9.3
2. COc1cc(N2CCN(C)CC2)ccc1Nc1nc(Oc2ccc(C)c3c2C(=O)CC3)c2cc[nH]c2n1: 7.9
3. Cc1ccc(Oc2nc(Nc3ccc(N4CCC(N5CCN(C)CC5)CC4)cc3)nc3[nH]ccc23)c2c1CCC2=O: 38

(I) CN1CCN(C2CCN(c3ccc(Nc4nc(Oc5cccc6c5C(=O)CC6)c5cc[nH]c5n4)cc3)CC2)CC1
(II) COc1cc(N2CCN(C)CC2)ccc1Nc1nc(Oc2cccc3c2C(=O)CC3)c2cc[nH]c2n1
(III) COc1cc(C(=O)NC2CCNCC2)ccc1Nc1nc(Oc2cccc3c2C(=O)CC3)c2cc[nH]c2n1
Query string: Parameters: sort_field (solubility), sort_dir (desc). # the answer lists labels in the order requested
Result string: III, I, II
(III: 456 µg/mL, I: 39.4 µg/mL, II: 13.6 µg/mL)
